Values from patent US20120219559A1

SYSTEM: T1, mouse B7-H2, full length, expressed on 293T cells (mouse, UniProt Q9JHJ8 44-322)
T1 construct: whole, on cells
T1 sequence (looked up): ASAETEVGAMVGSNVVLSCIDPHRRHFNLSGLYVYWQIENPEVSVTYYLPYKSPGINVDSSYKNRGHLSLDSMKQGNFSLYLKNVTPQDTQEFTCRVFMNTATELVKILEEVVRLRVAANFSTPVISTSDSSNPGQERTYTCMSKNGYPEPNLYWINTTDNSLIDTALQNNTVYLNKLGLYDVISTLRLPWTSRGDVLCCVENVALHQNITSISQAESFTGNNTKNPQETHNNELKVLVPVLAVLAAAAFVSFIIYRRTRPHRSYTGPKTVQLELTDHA
EXPERIMENT_SUMMARY: CDS well image, 293T cells transfected with the mouse gene, stained with the mouse fusion protein
QUANTITY_KIND: binding result

PD-1Ig (Fc fusion, Mus musculus, UniProt Q02242 25-167, looked up, Ig fusion protein purchased from R&D systems; also called mouse PD-1Ig fusion protein) fusion protein: LEVPNGPWRSLTFYPAWLTVSEGANATFTCSLSNWSEDLMLNWNRLSPSNQTEKQAAFCNGLSQPVQDARFQIIQLPNRHDFHMNILDTRRNDSGIYLCGAISLHPKAKIEESPGAELVVTERILETSTRYPSPSPKPEGRFQ: no binding
ICOSIg (Fc fusion, Mus musculus, UniProt Q9WVS0 21-144, looked up, Ig fusion protein purchased from R&D systems; also called mouse ICOSIg fusion protein) fusion protein: EINGSADHRMFSFHNGGVQISCKYPETVQQLKMRLFREREVLCELTKTKGSGNAVSIKNPMLCLYHLSNNSVSFFLNNPDSSQGSYYFCSLSIFDPPPFQERNLSGGYLHIYESQLCCQLKLWL: binds
B7-1Ig (Fc fusion, also called mouse B7-1Ig fusion protein; not shown: Ig (Fc) part and any linker of the R&D Systems fusion protein) VDEQLSKSVKDKVLLPCRYNSPHEDESEDRIYWQKHDKVVLSVIAGKLKVWPEYKNRTLYDNTTYSLIILGLVLSDRGTYSCVVQKKERGTYEVKHLALVKLSIKADFSTPNITESGNPSADTKRITCFASGGFPKPRFSWLENGRELPGINTTISQDPESELYTISSQLDFNTTRNHTIKCLIKYGDAHVSEDFTWEKPPEDPPDSKN: no binding
